tested on: Ba/F3 SLC34A2/ROS1-G2032R cell line; assay: In vitro cytological inhibitory activity (Celltiter-Glo assay); assay type: cell-based; settings: Mus musculus, BaF3, Ba/F3 SLC34A2/ROS1-G2032R cells, 72 hrs
Readout Name: IC50 (nM)

a: C[C@H]1COc2ncc(F)cc2[C@@H](C)Nc2ccc3ncn(c3n2)C(=O)N1
b: C[C@@H]1CCc2ncc(F)cc2[C@H]2CCCN2c2ccc3ncn(c3n2)C(=O)N1 (single isomer, unassigned)
c: C[C@@H]1COc2ncc(F)cc2[C@H]2CCCN2c2ccc3ncn(c3n2)C(=O)N1 (single isomer, unassigned)
Sort the items above by IC50, starting with the smallest value. In your reply, arrange the labels in the requested order.
c, b, a
(c: 2.3 nM, b: 4.2 nM, a: 6.7 nM)

The measurements presented in this section are drawn from patent US12178807B2.
